target desc: Plasmodium falciparum orotate phosphoribosyltransferase (PfOPRT) (Plasmodium falciparum)
Sequence (Q8I3Y0 1-281): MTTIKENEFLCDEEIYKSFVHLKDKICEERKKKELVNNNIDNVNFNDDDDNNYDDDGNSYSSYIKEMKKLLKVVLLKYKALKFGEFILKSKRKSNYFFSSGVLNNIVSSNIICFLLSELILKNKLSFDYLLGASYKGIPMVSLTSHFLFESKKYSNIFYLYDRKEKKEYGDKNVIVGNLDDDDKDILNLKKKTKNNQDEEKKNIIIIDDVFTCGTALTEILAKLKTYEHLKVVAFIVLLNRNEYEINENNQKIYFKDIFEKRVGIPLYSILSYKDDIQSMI
endpoint label: pKi
Quick note: pKi values are minus log10 of concentrations in mol/L.

*Q* Entry O=P(O)(O)OC[C@H]1N[C@H](COP(=O)(O)O)[C@@H](O)[C@H]1O (stereo in doubt) [L-DIAB] has what pKi?
*A* 3.99

###

target desc: Saccharomyces cerevisiae adenine phosphoribosyltransferase (ScAPRT) (Saccharomyces cerevisiae)
Sequence (P49435 whole entry): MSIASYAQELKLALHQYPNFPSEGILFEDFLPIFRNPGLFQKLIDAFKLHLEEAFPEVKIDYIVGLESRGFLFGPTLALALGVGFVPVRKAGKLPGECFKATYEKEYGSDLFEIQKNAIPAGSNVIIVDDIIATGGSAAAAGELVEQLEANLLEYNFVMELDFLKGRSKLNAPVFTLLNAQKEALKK
endpoint label: Ki (µM)
Just the number in µM, nothing appended.

*Q* Entry O=P(O)(O)OC[C@H]1N[C@H](COP(=O)(O)O)[C@@H](O)[C@H]1O (stereo in doubt) has what Ki?
*A* 14.9
